Assay: AEROSIZER time-of-flight of TBS (Example 8)
Type: physicochemical
Where a name gives a salt, the structure may show the parent alone.
measured endpoint: Aerosizer D4, 3 (μm)

Which Aerosizer D4, 3 (μm) value is on record for CC(C)(C)NCC(O)c1cc(O)cc(O)c1 (stereo not shown) [TBS 5, terbutaline sulfate] ? 11.44

a = CC(C)(C)NCC(O)c1cc(O)cc(O)c1 (stereo not shown) [TBS 4, terbutaline sulfate]
b = CC(C)(C)NCC(O)c1cc(O)cc(O)c1 (stereo not shown) [TBS 1, terbutaline sulfate]
c = CC(C)(C)NCC(O)c1cc(O)cc(O)c1 (stereo not shown) [TBS 3, terbutaline sulfate]
Sort these compounds on Aerosizer D4, 3 (μm) so the largest reading comes first. List the labels according to the requested ordering. a, c, b
(a: 15.53 μm, c: 6.69 μm, b: 3.31 μm)
